biological target: FabH derived from E. coli (ecFabH) (Escherichia coli)
Sequence (P0A6R0 whole entry): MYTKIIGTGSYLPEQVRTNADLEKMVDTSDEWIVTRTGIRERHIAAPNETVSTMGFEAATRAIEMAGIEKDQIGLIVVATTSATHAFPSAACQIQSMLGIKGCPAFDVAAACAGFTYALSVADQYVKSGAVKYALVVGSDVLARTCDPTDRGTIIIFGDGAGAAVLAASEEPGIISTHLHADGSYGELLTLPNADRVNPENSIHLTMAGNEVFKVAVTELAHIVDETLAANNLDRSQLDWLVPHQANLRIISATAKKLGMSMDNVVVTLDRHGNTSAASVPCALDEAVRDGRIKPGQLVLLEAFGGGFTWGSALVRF
Quantity kind: IC50

[ask] # get_value(readout='IC50', item= CSSCCNC(=O)CCNC(=O)[C@H](O)C(C)(C)COP(=O)(O)OP(=O)(O)OC[C@H]1O[C@@H](n2cnc3c(N)ncnc32)[C@H](O)[C@@H]1OP(=O)(O)O [Compound 25a] )
[reply] 57.1 µM

[ask] Record request: IC50 value, item CCCCCCCCCCSSCCNC(=O)CCNC(=O)[C@H](O)C(C)(C)COP(=O)(O)OP(=O)(O)OC[C@H]1O[C@@H](n2cnc3c(N)ncnc32)[C@H](O)[C@@H]1OP(=O)(O)O [Compound 25f]
[reply] > 300 µM

[ask] Data request, read-out IC50, for CCCCSSCCNC(=O)CCNC(=O)[C@H](O)C(C)(C)COP(=O)(O)OP(=O)(O)OC[C@H]1O[C@@H](n2cnc3c(N)ncnc32)[C@H](O)[C@@H]1OP(=O)(O)O [Compound 25d]
[reply] > 300 µM

[ask] Name the recorded IC50 for CCCCCCCCSSCCNC(=O)CCNC(=O)[C@H](O)C(C)(C)COP(=O)(O)OP(=O)(O)OC[C@H]1O[C@@H](n2cnc3c(N)ncnc32)[C@H](O)[C@@H]1OP(=O)(O)O [Compound 25e] .
[reply] > 300 µM

[ask] Record request: IC50 value, item CCC(C)SSCCNC(=O)CCNC(=O)[C@H](O)C(C)(C)COP(=O)(O)OP(=O)(O)OC[C@H]1O[C@@H](n2cnc3c(N)ncnc32)[C@H](O)[C@@H]1OP(=O)(O)O (some centres unmarked) [Compound 25c]
[reply] > 300 µM

----------
Exercise: for every item that follows, state its recorded Zones of growth inhibition of S. aureus (ATCC 25923).
test system: S. aureus (ATCC 25923); test: microbe, parasite or virus in culture; assay type: cell-based, Staphylococcus aureus; settings: 24 h, 37° C.

[ask] May I ask what Zones of growth inhibition of S. aureus (ATCC 25923) has been recorded for CCC(C)SSc1ccccc1[N+](=O)[O-] (stereo not shown) [Compound 44d, s-Butyl o-nitrophenyl Disulfide] ?
[reply] 15 (24) mm

[ask] Recorded Zones of growth inhibition of S. aureus (ATCC 25923) of CSSc1ccccc1[N+](=O)[O-] [Compound 44a, Methyl o-nitrophenyl Methyl Disulfide] , please.
[reply] 34(37) mm

[ask] Reported Zones of growth inhibition of S. aureus (ATCC 25923) for CSSc1cccc([N+](=O)[O-])c1 [Compound 43a, Methyl m-nitrophenyl Disulfide] : what is it?
[reply] 27 (36) mm

[ask] Requested read-out: Zones of growth inhibition of S. aureus (ATCC 25923). Entry: CC(C)SSc1cccc([N+](=O)[O-])c1 [Compound 43c, Isopropyl m-nitrophenyl Disulfide]
[reply] 55 (85) mm

[ask] Please look up its Zones of growth inhibition of S. aureus (ATCC 25923): CC(C)SSc1ccccc1[N+](=O)[O-] [Compound 44c, Isopropyl o-nitrophenyl Disulfide]
[reply] 17 (31) mm

[ask] I am curious: what Zones of growth inhibition of S. aureus (ATCC 25923) value has been reported for CCSSc1ccccc1[N+](=O)[O-] [Compound 44b] ?
[reply] 29(40) mm

[ask] What Zones of growth inhibition of S. aureus (ATCC 25923) value was documented for this molecule, CCC(C)SSc1cccc([N+](=O)[O-])c1 (stereo not shown) [Compound 43d, s-Butyl m-nitrophenyl Disulfide] ?
[reply] 25 (45) mm
